Listing of entries alongside the reported pIC50.
Test Target: hPDL1(19-239)-TVMV-His (recombinant human PD-L1-TVMV-His) (UniProt Q9NZQ7 19-239)
Sequence (Q9NZQ7 other isoform, or with tags, fused parts or gaps): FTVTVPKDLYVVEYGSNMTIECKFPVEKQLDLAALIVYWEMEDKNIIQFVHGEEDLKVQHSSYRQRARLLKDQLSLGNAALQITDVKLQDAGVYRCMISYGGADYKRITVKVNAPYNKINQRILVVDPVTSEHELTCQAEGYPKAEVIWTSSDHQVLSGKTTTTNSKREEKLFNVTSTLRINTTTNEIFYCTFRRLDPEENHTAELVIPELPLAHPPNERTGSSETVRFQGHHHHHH
Assay Remarks: HTRF PD-1/PD-L1 binding inhibition
pIC50: −log10 of the molar value. Positions of bridges follow the written chain, without caps; N, C: chain ends. Non-standard residues stand in square brackets, D forms with d. NMeNle = CCCC[C@H](NC)C(=O)O; NMeA = CN[C@@H](C)C(=O)O

{"Binder": "{CH2CO}-F[NMeA]NPHHSWRW[NMeNle][NMeNle]LCG-NH2 (thioether N-14; SMILES CCCC[C@H]1C(=O)N(C)[C@@H](CCCC)C(=O)N[C@@H](CC(C)C)C(=O)N[C@H](C(=O)NCC(N)=O)CSCC(=O)N[C@@H](Cc2ccccc2)C(=O)N(C)[C@@H](C)C(=O)N[C@@H](CC(N)=O)C(=O)N2CCC[C@H]2C(=O)N[C@@H](Cc2c[nH]cn2)C(=O)N[C@@H](Cc2c[nH]cn2)C(=O)N[C@@H](CO)C(=O)N[C@@H](Cc2c[nH]c3ccccc23)C(=O)N[C@@H](CCCNC(=N)N)C(=O)N[C@@H](Cc2c[nH]c3ccccc23)C(=O)N1C) [Compound No. 2]", "pIC50": 7.85}
{"Binder": "{CH2CO}-FLIVIRDRVFRCG-NH2 (thioether N-12) [Compound No. 99]", "pIC50": 7.05}
